The reported measurements were obtained from ChEMBL document CHEMBL4219124.

Molecular target: Prostaglandin E synthase (Homo sapiens, UniProt O14684)
Sequence (O14684 whole entry): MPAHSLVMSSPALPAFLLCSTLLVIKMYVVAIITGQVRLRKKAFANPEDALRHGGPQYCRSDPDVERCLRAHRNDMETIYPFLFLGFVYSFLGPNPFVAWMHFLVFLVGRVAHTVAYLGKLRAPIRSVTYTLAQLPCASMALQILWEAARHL
Assay: Inhibition of recombinant human mPGES1 expressed in CHO cells assessed as reduction in PGE2 production using PGH2 as substrate incubated for 10 mins followed by substrate addition measured for 1 min
Format: cell-based
pIC50: −log10 of the molar value.
experimental_endpoint: pIC50

structure: CC1(C)Cc2c(c(C(=O)Nc3ccccc3C(F)(F)F)cc3nc(Nc4c(F)cccc4Cl)[nH]c23)O1
readout_value: 8.29
--
structure: CC1(C)Cc2c(c(C(=O)Nc3cc(C(F)F)ccc3F)cc3nc(Nc4c(F)cccc4Cl)[nH]c23)O1
readout_value: 8.04
--
structure: CC1(C)Cc2c(c(C(=O)Nc3ccc(C(F)(F)F)cn3)cc3nc(Nc4c(F)cccc4Cl)[nH]c23)O1
readout_value: 7.60
--
structure: CC1(C)Cc2c(c(C(=O)Nc3cc(C4CC4)ccc3F)cc3nc(Nc4c(F)cccc4Cl)[nH]c23)O1
readout_value: 8.44
--
structure: CC1(C)Cc2c(c(C(=O)Nc3ccc(C(F)(F)F)cn3)cc3nc(Nc4c(Cl)cccc4Cl)[nH]c23)O1
readout_value: 8.08
--
structure: Cn1c(Nc2c(F)cccc2Cl)nc2cc(C(=O)Nc3cccc(C(F)(F)F)c3)c3c(c21)CC(C)(C)O3
readout_value: 8.24
